target-entity: CDK1-NanoLuc fusion with CCNB1 in 293T or 293 cells (Homo sapiens)
Construct: host or cells: 293T (ATCC CRL-3216) or 293 (ATCC CRL-1573)
assay: NanoBRET Target Engagement (TE) Intracellular Kinase Assay, CDK1/CCNB1
Format: cell-based
run-conditions: NanoBRET TE intracellular kinase assay, 2-hour incubation, read-out: NanoBRET-CDK1/B1 IC50
pIC50: −log10 of the molar value.
measured-parameter: pIC50

Consider the following illustrative entries.
{"compound": "CC(C)NC(=O)O[C@@H]1CC[C@H](c2cc(NC(=O)COc3cccc(NS(C)(=O)=O)c3C=O)n[nH]2)C1", "pIC50": 7.15}
{"compound": "O=Cc1c(O)cccc1OCC(=O)Nc1cc([C@H]2CC[C@@H](OC(=O)NC3CCC3)C2)[nH]n1", "pIC50": 7.61}
{"compound": "CC(C)NC(=O)O[C@@H]1CC[C@H](c2cc(NC(=O)[C@@H]3Cc4ccc(O)c(C=O)c4C3)n[nH]2)C1 [Compound 256]", "pIC50": 7.69}

a = Cc1cc(O)c(C=O)c(OCC(=O)Nc2cc([C@H]3CC[C@@H](OC(=O)NC(C)C)C3)[nH]n2)c1
b = CC(C)NC(=O)O[C@@H]1CC[C@H](c2cc(NC(=O)Cc3ccc(-c4cccc(O)c4C=O)cc3)n[nH]2)C1
query: API: POST /compare with a and b ; response names the item with higher pIC50. # reply format: chosen label
result: a

a = COc1cc(O)c(C=O)c(OCC(=O)Nc2cc([C@H]3CC[C@@H](OC(=O)NC4(C#N)CC4)C3)[nH]n2)c1
b = COCc1cc(O)c(C=O)c(OCC(=O)Nc2cc([C@H]3CC[C@@H](OC(=O)NC(C)C)C3)[nH]n2)c1
query: API: POST /compare with a and b ; response names the item with higher pIC50. # reply format: chosen label
result: a
(a: 7.69, b: 6.36)

---

target-entity: CDK1-NanoLuc fusion with CCNB1 in 293T or 293 cells (Homo sapiens, UniProt P06493)
Construct: host or cells: 293T (ATCC CRL-3216) or 293 (ATCC CRL-1573)
Sequence (P06493 whole entry, the tested form may be a part): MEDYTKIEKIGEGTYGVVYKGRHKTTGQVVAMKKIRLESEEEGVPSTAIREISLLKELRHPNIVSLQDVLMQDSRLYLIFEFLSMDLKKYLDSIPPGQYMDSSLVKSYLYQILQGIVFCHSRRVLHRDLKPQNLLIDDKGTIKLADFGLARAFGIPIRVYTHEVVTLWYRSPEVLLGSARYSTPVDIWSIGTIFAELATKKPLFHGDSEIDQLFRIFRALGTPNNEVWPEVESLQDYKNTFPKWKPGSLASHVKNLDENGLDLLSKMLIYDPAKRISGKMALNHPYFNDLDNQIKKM
Sequence (P14635 whole entry partner, the tested form may be a part): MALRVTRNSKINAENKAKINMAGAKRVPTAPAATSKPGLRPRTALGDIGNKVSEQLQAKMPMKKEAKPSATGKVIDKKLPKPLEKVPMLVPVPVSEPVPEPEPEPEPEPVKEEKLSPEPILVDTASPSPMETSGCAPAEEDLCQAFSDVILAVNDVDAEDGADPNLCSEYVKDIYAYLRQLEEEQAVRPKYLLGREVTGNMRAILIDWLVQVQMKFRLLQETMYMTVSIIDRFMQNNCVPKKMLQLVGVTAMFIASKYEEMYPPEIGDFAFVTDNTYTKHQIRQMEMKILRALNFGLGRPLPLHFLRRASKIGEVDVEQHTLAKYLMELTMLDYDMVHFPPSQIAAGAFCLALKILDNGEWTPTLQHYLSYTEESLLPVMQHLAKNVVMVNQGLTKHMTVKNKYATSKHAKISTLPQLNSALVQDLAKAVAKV
assay: NanoBRET Target Engagement (TE) Intracellular Kinase Assay, CDK1/CCNB1
Assay type: cell-based
run-conditions: NanoBRET TE intracellular kinase assay, 2-hour incubation, read-out: NanoBRET-CDK1/B1 IC50
pIC50: −log10 of the molar value.
measured-parameter: pIC50

Consider the following illustrative entries.
{"compound": "CC(C)NC(=O)O[C@@H]1CC[C@H](c2cc(NC(=O)CCc3ccc(O)c(C=O)c3)n[nH]2)C1 [Compound 6, trifluoroacetic acid]", "observed": 6.95}
{"compound": "COc1cc(O)c(C=O)c(OCC(=O)Nc2cc([C@H]3CC[C@@H](OC(=O)N4[C@@H](C)COC[C@@H]4C)C3)[nH]n2)c1 [Compound 212]", "observed": 8.20}
{"compound": "CC(C)NC(=O)O[C@@H]1CC[C@H](c2cc(NC(=O)C3CCN(c4cccc(O)c4C=O)CC3)n[nH]2)C1 [Compound 92]", "observed": 6.56}
{"compound": "Cc1sc(-c2cccc(O)c2C=O)nc1C(=O)Nc1cc([C@H]2CC[C@@H](OC(=O)NC(C)C)C2)[nH]n1 [Compound 65]", "observed": 7.55}
{"compound": "CC(C)NC(=O)O[C@@H]1CC[C@H](c2cc(NC(=O)[C@H]3C[C@@H]3c3cccc(O)c3C=O)n[nH]2)C1 (single isomer, unassigned) [Compound 10]", "observed": 7.95}
{"compound": "COc1cc(O)c(C=O)c(OCC(=O)Nc2cc([C@H]3CC[C@@H](OC(=O)N4CCOCC45CC5)C3)[nH]n2)c1 [Compound 205]", "observed": 8.34}

A = CC(=O)Nc1ccc(C(=O)Nc2cc([C@H]3CC[C@@H](OC(=O)NC(C)C)C3)[nH]n2)cc1C=O [Compound 38]
B = Cc1nc(-c2cccc(O)c2C=O)sc1C(=O)Nc1cc([C@H]2CC[C@@H](OC(=O)NC(C)C)C2)[nH]n1 [Compound 53]
C = CC(C)NC(=O)O[C@@H]1CC[C@H](c2cc(NC(=O)[C@H]3C[C@H](Oc4cccc(O)c4C=O)C3)n[nH]2)C1 (single isomer, unassigned) [Compound 1]
D = COc1cc(O)c(C=O)c(OCC(=O)Nc2cc([C@H]3CC[C@@H](OC(=O)N4CC[C@H](C)C4)C3)[nH]n2)c1 [Compound 238]
query: List from greatest to least pIC50. Write the labels in rank order as requested.
result: D, B, C, A
